target: MAGI2_2, Q86UL8; test: holdup assay; parameters: key: below the threshold = too weak to quantify, mostly under pKd 3.1 to 4; conditions: plain residues with an end cap or a label only (N-terminal biotin on a linker: ado-ado)
Sequence (Q86UL8 410-522): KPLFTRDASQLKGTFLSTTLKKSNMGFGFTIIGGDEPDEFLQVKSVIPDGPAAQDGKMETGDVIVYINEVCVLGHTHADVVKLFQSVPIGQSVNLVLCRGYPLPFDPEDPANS
observed property: pKd

{"binder": "SAAKVLTSMC [GHRHR, Q02643]", "observed property": "pKd", "recorded result": "below the threshold"}
{"binder": "ETQVTAETVI [TMEM225B, P0DP42]", "observed property": "pKd", "recorded result": "below the threshold"}
{"binder": "HSGYRLNDYV [CLDN14, O95500]", "observed property": "pKd", "recorded result": "below the threshold"}
{"binder": "PDGQCTVTEV [RNF146, Q9NTX7]", "observed property": "pKd", "recorded result": 3.86}
{"binder": "LPHGHSTTRV [NLGN4X, Q8N0W4]", "observed property": "pKd", "recorded result": 4.95}
{"binder": "QSARLWETSI [ADAM22, Q9P0K1]", "observed property": "pKd", "recorded result": 3.72}
{"binder": "DDEDRLVIEI [ZNF831, Q5JPB2]", "observed property": "pKd", "recorded result": "below the threshold"}
{"binder": "TLPRKRMSSI [GPRC6A, Q5T6X5]", "observed property": "pKd", "recorded result": 3.82}
{"binder": "KKMPSIESDV [GRIN2A, Q12879]", "observed property": "pKd", "recorded result": 4.05}
{"binder": "SKSNFGSEPL [KIF17, Q9P2E2]", "observed property": "pKd", "recorded result": "below the threshold"}
{"binder": "VYPNAKVELV [PDLIM4_iso2, P50479;P50479-1]", "observed property": "pKd", "recorded result": "below the threshold"}
{"binder": "EVEEFPETSV [TRPV3, Q8NET8]", "observed property": "pKd", "recorded result": 3.76}
{"binder": "NHSSSPETTA [TRMT13, Q9NUP7]", "observed property": "pKd", "recorded result": "below the threshold"}
{"binder": "TSQESEDTYL [TBC1D10A, Q9BXI6]", "observed property": "pKd", "recorded result": "below the threshold"}
{"binder": "SKENVQETQI [LRRC4B, Q9NT99]", "observed property": "pKd", "recorded result": "below the threshold"}
{"binder": "NLSIEKETKL [ASNSD1, Q9NWL6]", "observed property": "pKd", "recorded result": "below the threshold"}
